Experiment: NCI Yeast Anticancer Drug Screen. Data for the bub3 strain (AID 167)
Settings: S. cerevisiae bub3 mutant strain, at 50.0 µM, stronger effect = higher value
This is part of a sample that, as a whole, favours compounds with a hit. Of some 79,000 tested, about 15% had one in any assay.
Listing of recorded growth inhibition by entry.
Reply numerically in %, unit not repeated.

[[record]]
compound = "CN(C)C1(c2ccc3ccccc3c2)CSC1"
propertyname = "growth inhibition"
measurement = -29.8

[[record]]
compound = "O=C1c2ccccc2OP(=O)(OCC(F)(F)F)OC1(C(F)(F)F)C(F)(F)F (stereo not given)"
propertyname = "growth inhibition"
measurement = -41.5

[[record]]
compound = "Cc1ccc(N2CCNCC2C)cc1 (stereo not given)"
propertyname = "growth inhibition"
measurement = -9.25

[[record]]
compound = "C#CCN(C)C(=O)N(CC#C)N=O"
propertyname = "growth inhibition"
measurement = -6.55


Which growth inhibition value belongs to CCC1(O)CC(OC2CC(N(C)C)C(OC3CC(O)C(OC4CCC(=O)C(C)O4)C(C)O3)C(C)O2)c2c(cc3c(c2O)C(=O)c2c(O)ccc(O)c2C3=O)C1C(=O)OC (stereo not given) ?
90

---

Experiment: NCI Yeast Anticancer Drug Screen. Data for the bub3 strain (AID 167)
Details: S. cerevisiae bub3 mutant strain, at 50.0 µM, stronger effect = higher value
About 79,000 compounds went through this panel and 15% of them were active in at least one assay; those are over-represented in the sample as a whole. Calls of active or inactive are those of the source. No stated cut-off is given here; in the data, active means growth inhibition above about 70%; inactive means the rest.
Item-by-item account of growth inhibition

Recorded growth inhibition, per entry:
[[record]]
compound = "COP1(=S)OCC2OC(n3cc(C)c(=O)[nH]c3=O)CC2O1 (configuration not stated)"
propertyname = "growth inhibition"
measurement = "23.1% (inactive)"

[[record]]
compound = "Cc1cc(CCl)c(O)c(CCl)c1"
propertyname = "growth inhibition"
measurement = "-18.9% (inactive)"

[[record]]
compound = "CCC1(N)C(=O)OCc2c1cc1n(c2=O)Cc2cc3ccccc3nc2-1 (configuration not stated)"
propertyname = "growth inhibition"
measurement = "-17.1% (inactive)"

[[record]]
compound = "Cn1c(=O)oc(=O)c2ccccc21"
propertyname = "growth inhibition"
measurement = "-27.4% (inactive)"

[[record]]
compound = "COC1C(OC(=O)c2ccc(C)[nH]2)C(O)C(Oc2ccc3c(O)c(NC(=O)c4ccc(O)c(CC=C(C)C)c4)c(=O)oc3c2Cl)OC1(C)C (configuration not stated)"
propertyname = "growth inhibition"
measurement = "35.9% (inactive)"


Please report the recorded growth inhibition for O=C(O)c1cccc([As]=[As]c2cccc(C(=O)O)c2)c1 (configuration not stated) .
-65.3% (inactive)

---

growth inhibition overview
Assay: NCI Yeast Anticancer Drug Screen. Data for the rad50 strain (AID 155);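 also: 0% = growth of vehicle-only cultures of the same strain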
Settings: S. cerevisiae rad50 strain growth inhibition; at 50.0 µM; stronger effect = higher value
Compounds without any hit were thinned out: in the full panel of roughly 79,000, 15% have a hit.
Provide only the numeric value, understood in %.

[[record]]
molecule = "CCOP(=O)(OCC)C(O)C(C)C (stereo not drawn)"
measurement = 3.5

[[record]]
molecule = "CCC12C=CCN3CCC4(C(=C(C(=O)OC)C1)Nc1ccccc14)[C@H]32 (stereo partly drawn)"
measurement = 6.7

[[record]]
molecule = "[Se]=P(c1ccccc1)(N1CC1)N1CC1"
measurement = 33.2

[[record]]
molecule = "CN(C)c1ccc(N=Nc2ccc([As](=O)(O)O)cc2)cc1"
measurement = -23.1


Quick one: growth inhibition of CN(C)C(=O)O/N=C(\c1ccccc1)C(F)(F)F ?
35.7

Need growth inhibition, item O=C(COc1cccc(Cl)c1Cl)Nc1ccc[n+](Cc2ccc(S(=O)(=O)F)cc2)c1
20.4

For N#CN=C(N)NC#N , what is its reported growth inhibition?
24.1

What value of measured growth inhibition is listed for O=C(Nc1cccc(Cl)c1)Oc1ccc(S(=O)(=O)F)cc1Cl ?
92.3

Please report the recorded growth inhibition for CNC(=O)Oc1cc(C)cc(C(C)C)c1 .
14.3

Would you mind telling me what growth inhibition value was observed for CC1NC1(c1ccccc1)n1ccnc1 (stereo not drawn) ?
13.4

Form field: reported growth inhibition of Brc1ccc(Oc2ccc(Br)cc2Br)c(Br)c1
13.9

Reported growth inhibition for N#CC[CH2][Sn]([I])([c]1ccccc1)[c]1ccccc1 : what is it?
98.2

growth inhibition lookup needed for C=CCC1(O)CCC2C3CCC4=CC(=O)CCC4=C3C=CC21CC (stereo not drawn) , thanks.
26.9

---

Test: NCI Yeast Anticancer Drug Screen. Data for the mec2-1 strain (AID 157)
Details: S. cerevisiae mec2-1 strain, at 50.0 µM, stronger effect = higher value
Method: Growth inhibition of yeast strains with defined genetic alterations is measured as a screen for potential anti-cancer activity. Selected strains with alterations in DNA damage repair or cell cycle control were exposed to compounds and growth inhibition was measured relative to vehicle treated controls. The strain used in this assay is mec2-1
About 79,000 compounds went through this panel and 15% of them were active in at least one assay; those are over-represented in the sample as a whole.
propertyName: growth inhibition (%)
Note: unit % is implicit; provide only the numeric part.

// worked examples, growth inhibition included
[[record]]
compound = "CCC[CH2][Sn]([Br])([c]1ccccc1)[c]1ccccc1"
unittag = "%"
measurement = 99

[[record]]
compound = "O=C(O)[C@H](O)[C@@H](O)C(=O)O.[Pb]"
unittag = "%"
measurement = -4.35


Which growth inhibition value belongs to CCCC(=O)[O-].CCCC(=O)[O-].N.N.N.N.[Co+3].[O-][Cl+3]([O-])([O-])[O-] ?
-0.75

Could you share which growth inhibition value was measured for c1ccc(N=PNc2ccccc2)cc1 (stereo not given) ?
-6.25

Item CCCOC(=O)C(C)(C)C(OP(OCCC)OCCC)=C(C)C has what recorded growth inhibition?
4.35

---

Experiment: NCI Yeast Anticancer Drug Screen. Data for the rad50 strain (AID 155);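 also: 0% = growth of vehicle-only cultures of the same strain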
Conditions: S. cerevisiae rad50 strain growth inhibition; at 50.0 µM
This is part of a sample that, as a whole, favours compounds with a hit. Of some 79,000 tested, about 15% had one in any assay. Calls of active or inactive are those of the source. No stated cut-off is given here; in the data, active means growth inhibition above about 70%; inactive means the rest.
Tick one outcome: active, inactive

Could you please tell me the result logged for O=NN1CCCNCC1 in this assay?
inactive

Please share the test call associated with N#Cc1ccccn1 .
inactive

Test call, this compound: CCCCCCCCCCC(C(=O)c1ccccc1)N1CCOCC1 (stereo unspecified)
inactive

---

Experiment: NCI Yeast Anticancer Drug Screen. Data for the rad50 strain (AID 155);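 also: 0% = growth of vehicle-only cultures of the same strain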
Details: S. cerevisiae rad50 strain growth inhibition; at 50.0 µM; stronger effect = higher value
About 79,000 compounds went through this panel and 15% of them were active in at least one assay; those are over-represented in the sample as a whole.
Mark False for growth inhibition values under -10%, and True for everything at or above.

[[record]]
molecule = "O=C(O)/C=C/C(=O)O.[Ni]"
class = "False"


In plain terms: is recorded growth inhibition at least -10% for CCC(CC)C(=O)Cl ?
True

// inclusive: growth inhibition at least -10%? input: CCC1(CCC(C)C)C(=O)NC(=O)N(C)C1=O (configuration not stated)
True

Decide: growth inhibition of O=C1c2ccccc2OP(=O)(OCC(F)(F)F)OC1(C(F)(F)F)C(F)(F)F (configuration not stated) >= -10%?
False

Threshold query (growth inhibition >= -10%) on COc1ccc2c(c1O)CN1CCc3cc4c(cc3C1C2)OCO4 (configuration not stated)
True

Assess whether reported growth inhibition for CC(C)C1NC(C(C)C)N2C(C(C)C)N12 (configuration not stated) sits at -10% or higher.
True

---

Assay: NCI Yeast Anticancer Drug Screen. Data for the mlh1 rad18 strain (AID 175)
Settings: S. cerevisiae mlh1 rad18 strain growth inhibition; at 50.0 µM; stronger effect = higher value
This is part of a sample that, as a whole, favours compounds with a hit. Of some 79,000 tested, about 15% had one in any assay.
propertyName: growth inhibition (%)
Give a bare numeral; the unit % is implied.

In the examples that follow, each entry is paired with its recorded growth inhibition.
[[record]]
molecule = "NC(Cc1ccc2c(c1)OCO2)c1ccccc1 (centres undefined)"
propertyname = "growth inhibition"
measurement = 4.45

[[record]]
molecule = "C[N+]1([O-])C2CCC1CC(O)C2 (centres undefined)"
propertyname = "growth inhibition"
measurement = 17.4

[[record]]
molecule = "C=CCn1nnnc1N"
propertyname = "growth inhibition"
measurement = -6.2

[[record]]
molecule = "CN1CCC[N+](C)=C1c1ccc(N(C)C)cc1"
propertyname = "growth inhibition"
measurement = -7.15

[[record]]
molecule = "C#CCOC(N)=O"
propertyname = "growth inhibition"
measurement = -17.6


Please look at the following molecule next.
Bench note: what growth inhibition did CC/C=C/C1(C(C)C)C(=O)NC(=O)NC1=O (tested in a mixture with another compound) show?
13.7

---

Consider the following compounds and their measured growth inhibition readings.
Experiment: NCI Yeast Anticancer Drug Screen. Data for the sgs1 mgt1 strain (AID 161);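 also: 0% = growth of cultures given vehicle only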
Conditions: S. cerevisiae sgs1 mgt1 strain, at 50.0 µM, stronger effect = higher value
This is part of a sample that, as a whole, favours compounds with a hit. Of some 79,000 tested, about 15% had one in any assay.
Quick note: give the figure in %, leave out the unit.

// solved cases for growth inhibition follow
[[record]]
compound = "CCCCC(=O)[O-].N.N.N.N.N.[Co+3].[O-][Cl+3]([O-])([O-])[O-]"
propertyname = "growth inhibition"
measurement = -18.4

[[record]]
compound = "[NH-]C(CCC(N)=O)C(=O)O.[NH-]C(CCC(N)=O)C(=O)O.[Pd+2] (centres undefined)"
propertyname = "growth inhibition"
measurement = -7.55

[[record]]
compound = "NC(=O)c1cc([N+](=O)[O-])c([N+](=O)[O-])cc1N(CCCl)CCCl"
propertyname = "growth inhibition"
measurement = 27.2

[[record]]
compound = "COc1cc(C2c3cc4c(cc3C(O)[C@H]3COC(=O)[C@@H]23)OCO4)cc(OC)c1O (some centres undefined)"
propertyname = "growth inhibition"
measurement = -28.8

[[record]]
compound = "COc1ccc2c(c1)C1(C=N2)CCN(C(C)=O)CC1"
propertyname = "growth inhibition"
measurement = -16.4

[[record]]
compound = "N#CC(C#N)C1CN2CCC1CC2 (centres undefined)"
propertyname = "growth inhibition"
measurement = 15.6


Bench note: what growth inhibition did COC(=O)CN(CCCl)P1(=O)OCCCN1CCCl (centres undefined) show?
-5.5

Look up growth inhibition for this compound: C(=NCCN1CCOCC1)=NC1CCCCC1
-10.9

Look at this compound and give its reported growth inhibition. CNC(=O)N1CN(c2ccccc2)C2(CCN(Cc3ccccc3)CC2)C1=O
-15.9

Name the reported growth inhibition value associated with the compound C1C[OH+]CC[OH+]CC[OH+]CC[OH+]CC[OH+]1.[Cl-].[V]
-1.95

Requested field: growth inhibition. Item: CCCCCCC(Cn1ccnc1)c1ccc(Br)cc1 (centres undefined)
95.8

What measured growth inhibition goes with O=C1C=CC(=Nc2ccc(N(CCCl)CCCl)cc2)C=C1 ?
13.3

Which growth inhibition value is on record for C=CC(Cl)OC(=O)C(C)O (centres undefined) ?
15.2

So what does the record say about growth inhibition for O=c1cc(N2CCNCC2)nc2ccccn12 ?
4.95

Record request: growth inhibition value, item Fc1cccc2cc3cccc[n+]3cc12
3.55

Which growth inhibition is reported for this compound? O=[N+]([O-])OC(c1ccncc1)C(O[N+](=O)[O-])c1ccncc1 (centres undefined)
-6.25

Given the entry O=S(=O)(O)c1ccc([Se][Se]c2ccc(S(=O)(=O)O)cc2)cc1 , report its measured growth inhibition.
-18.1

Name the reported growth inhibition value associated with the compound Cc1cc(N(CCCl)CCCl)ccc1C1N(Cc2ccc(N(CCCl)CCCl)cc2)CCCN1Cc1ccc(N(CCCl)CCCl)cc1
-6.2

Looking for the measured growth inhibition of CCOP(=O)(OCC)/C(C#N)=C/c1cnc[nH]1 , can you help?
-38
